targetSystem: c-kit kinase enzyme (Homo sapiens, UniProt P10721)
Construct: (catalytic domain, N-terminal GST tagged, unphosphorylated)
Sequence (P10721 589-937 limits assumed): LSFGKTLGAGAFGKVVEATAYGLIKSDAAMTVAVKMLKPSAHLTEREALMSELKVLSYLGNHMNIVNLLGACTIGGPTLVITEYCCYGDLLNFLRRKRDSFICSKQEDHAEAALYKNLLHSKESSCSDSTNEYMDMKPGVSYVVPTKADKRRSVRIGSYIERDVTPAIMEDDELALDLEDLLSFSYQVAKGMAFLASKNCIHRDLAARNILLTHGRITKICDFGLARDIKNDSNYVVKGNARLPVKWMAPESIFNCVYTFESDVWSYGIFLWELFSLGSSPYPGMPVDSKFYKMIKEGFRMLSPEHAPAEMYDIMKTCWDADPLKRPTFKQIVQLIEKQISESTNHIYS
protocolSummary: C-kit Homogeneous Time Resolved Fluorescent (HTRF) kinase assay
Assay type: biochemical
setupConditions: HTRF Fret enzyme assay data, c-kit catalytic domain, biotinylated Her-2 peptide substrate, ATP
Let's look at some molecules and their measured IC50.
Note: unit nM is implicit; provide only the numeric part.

Observe how each entry below is paired with its result.
1. Cc1ccn(CCCC(C)C)c(=O)c1-c1ccc2nc(N)ncc2c1 : 1.12
2. Cc1ccn(-c2ccc3c(c2)CCO3)c(=O)c1-c1ccc2nc(N)ncc2c1 : 7.58
3. Cc1ccn(-c2ccc3ncccc3c2)c(=O)c1-c1ccc2nc(N)ncc2c1 : 5.29

Consider now this further molecule.
Looking up `Cc1ccn(-c2ccc(C(C)(C)C)cc2)c(=O)c1-c1ccc2nc(N)ncc2c1` , I found its IC50 recorded as 2.06
